# Tested on: 5637 cells
# test-summary: MTT cytotoxicity assay, 5637 bladder cancer cells
# Assay type: cell-based, human
# conditions-used: Homo sapiens, 24 h, 5637, normoxia, 24 h incubation, MTT; read-out: IC50
pIC50: −log10 of the molar value.
value-kind: pIC50

• COCCOCCOCCOc1ccc(/C=C/C(=O)/C=C(O)/C=C/c2ccc(OCCOCCOCCOC)c(OC)c2)cc1OC = 5.08
• COc1ccc(/C=C/C(=O)/C=C(O)/C=C/c2ccc(OC)c(O)c2)cc1O = 4.96

----------
# test-summary: MTT cytotoxicity assay, MRC-5 normal lung fibroblasts
# conditions-used: human, MRC-5 normal lung fibroblasts
value-kind: viability at 10 µM

* COCCOCCOCCOc1ccc(/C=C/C(=O)/C=C(O)/C=C/c2ccc(OCCOCCOCCOC)c(OC)c2)cc1OC [Compound 5] | ~100%

----------
# Test system: 5637 cells
# test-summary: MTT cytotoxicity assay, 5637 bladder cancer cells
# Format: cell-based, human
# conditions-used: Homo sapiens, 24 h, 5637, panel B (hypoxia 1% oxygen, 3-8 µM), 24 h; read-out: IC50 (narrow concentration range)
pIC50: −log10 of the molar value.
value-kind: pIC50

- COCCOCCOCCOc1ccc(/C=C/C(=O)/C=C(O)/C=C/c2ccc(OCCOCCOCCOC)c(OC)c2)cc1OC [Compound 5]: 5.28
